- System: NCI-H1915
- Assay Explanation: relative viability (nuclei count vs DMSO), 5 days (fraction); higher = more cells survive
- Condition: first compound 0.3162 µM
Quantity Kind: relative viability

# Compound, Result
measured = [
    ("NC(=O)Nc1cc(-c2cccc(F)c2)sc1C(=O)N[C@H]1CCCNC1 [AZD7762] + CC1(C)CCC(c2ccc(Cl)cc2)=C(CN2CCN(c3ccc(C(=O)NS(=O)(=O)c4ccc(N[C@H](CCN5CCOCC5)CSc5ccccc5)c(S(=O)(=O)C(F)(F)F)c4)cc3)CC2)C1 [Navitoclax] (partner 0.5 µM)", 0.806),
    ("NC(=O)Nc1cc(-c2cccc(F)c2)sc1C(=O)N[C@H]1CCCNC1 [AZD7762] + CC(C)C[C@H](NC(=O)[C@H](Cc1ccccc1)NC(=O)c1cnccn1)B(O)O [Bortezomib] (partner 0.002 µM)", 1.02),
    ("NC(=O)Nc1cc(-c2cccc(F)c2)sc1C(=O)N[C@H]1CCCNC1 [AZD7762] + CC(=O)c1c(C)c2cnc(Nc3ccc(N4CCNCC4)cn3)nc2n(C2CCCC2)c1=O [Palbociclib] (partner 0.5 µM)", 0.617),
    ("NC(=O)Nc1cc(-c2cccc(F)c2)sc1C(=O)N[C@H]1CCCNC1 [AZD7762] + CCNC(=O)c1noc(-c2cc(C(C)C)c(O)cc2O)c1-c1ccc(CN2CCOCC2)cc1 [Luminespib] (partner 0.01 µM)", 0.555),
    ("NC(=O)Nc1cc(-c2cccc(F)c2)sc1C(=O)N[C@H]1CCCNC1 [AZD7762] + N=C(N)NC(=N)NCCc1ccccc1 [Phenformin] (partner 250 µM)", 0.362),
    ("NC(=O)Nc1cc(-c2cccc(F)c2)sc1C(=O)N[C@H]1CCCNC1 [AZD7762] + Cc1cc(Nc2cc(N3CCN(C)CC3)nc(Sc3ccc(NC(=O)C4CC4)cc3)n2)n[nH]1 [Tozasertib] (partner 0.1 µM)", 0.415),
    ("NC(=O)Nc1cc(-c2cccc(F)c2)sc1C(=O)N[C@H]1CCCNC1 [AZD7762] + CS(=O)(=O)CCNCc1ccc(-c2ccc3ncnc(Nc4ccc(OCc5cccc(F)c5)c(Cl)c4)c3c2)o1 [Lapatinib] (partner 2 µM)", 0.909),
]

====

relative viability: recorded values
- Tested on: LK-2
- Assay Explanation: relative viability (nuclei count vs DMSO), 5 days (fraction); higher = more cells survive
- Condition: first compound 0.8 µM

# Compound, relative viability
records = [
    ("Oc1nc(-c2ccc(C(F)(F)F)cc2)nc2c1CSCC2 [XAV939] + CS(=O)(=O)N1CCN(Cc2cc3nc(-c4cccc5[nH]ncc45)nc(N4CCOCC4)c3s2)CC1 [Pictilisib] (partner 1 µM)", 0.643),
    ("C=C1C(=O)O[C@@H](CCCCCCCC)[C@@H]1C(=O)O [C-75] + CS(=O)(=O)N1CCN(Cc2cc3nc(-c4cccc5[nH]ncc45)nc(N4CCOCC4)c3s2)CC1 [Pictilisib] (partner 1 µM)", 0.555),
    ("C=C1C(=O)O[C@@H](CCCCCCCC)[C@@H]1C(=O)O [C-75] + Cc1nc(Nc2ncc(C(=O)Nc3c(C)cccc3Cl)s2)cc(N2CCN(CCO)CC2)n1 [Dasatinib] (partner 0.075 µM)", 0.309),
    ("C=C1C(=O)O[C@@H](CCCCCCCC)[C@@H]1C(=O)O [C-75] + COc1cccc2cc(-c3nc([C@H]4CC[C@H](C(=O)O)CC4)n4ncnc(N)c34)[nH]c12 [OSI-027] (partner 0.5 µM)", 0.222),
    ("Oc1nc(-c2ccc(C(F)(F)F)cc2)nc2c1CSCC2 [XAV939] + CC1(C)CCC(c2ccc(Cl)cc2)=C(CN2CCN(c3ccc(C(=O)NS(=O)(=O)c4ccc(N[C@H](CCN5CCOCC5)CSc5ccccc5)c(S(=O)(=O)C(F)(F)F)c4)cc3)CC2)C1 [Navitoclax] (partner 0.5 µM)", 0.928),
]
